experiment.notes: in vivo
experimental.context: male, C57BL/6J and DBA/2J, mouse, in vivo
Protocol: C57BL/6J and DBA/2J male mice (35-40 g) are tested for the acute lethal effects of adriamycin and the prevention of acute lethality by pretreatment doses of subject hydroxylamines. Mice are injected i.p with either saline or subject hydroxylamines 30 minutes prior to administration of adriamycin.

- molecule.smiles: "COc1cccc2c1C(=O)c1c(O)c3c(c(O)c1C2=O)C[C@@](O)(C(=O)CO)C[C@@H]3O[C@H]1C[C@H](N)[C@H](O)[C@H](C)O1"
  LD50 / mg/kg: 25
